System: RXF 393
PROCEDURE_DETAILS: NCI tumour cell line growth inhibition, 48 h
Activity calls are given as the source filed them. No stated cut-off is given here; in the data, active = GI50 up to about 1.1 µM and inactive = higher.
Respond using exactly one of the listed classes: True (active), False (inactive)

Sample answers from the record:
{"columns": ["COMPOUND", "CLASS_NAME"],
 "data": [
  ["CC1CCC(=O)C(C(O)CC2CC(=O)N(c3ccccc3)C(=O)C2)C1 (stereo not given)", "False"],
  ["CC(C)[Si]1(C(C)C)OCC2OC(n3c(C(=O)c4ccccc4)cc(=O)[nH]c3=O)CC2O[Si](C(C)C)(C(C)C)O1 (stereo not given)", "False"],
  ["COC(=O)[C@]12CC[C@H]3CN(C(=O)OCc4ccccc4)[C@H]([C@H]31)[C@H](c1ccccc1)N2", "False"]
]}

Which outcome was entered for the compound O=C1C(=O)C2(CC1S(=O)(=O)c1ccccc1)c1ccccc1-c1ccccc12 (stereo not given) in this test?
False

Answer briefly: the call reported for O=C(/C=C/c1ccccc1)Oc1cccc(O)c1 in this assay.
False

What did this assay record as the result for O=C(Nc1ccccc1SC(/C=C/NNC1=NN=C(c2ccccc2)C(c2ccccc2)N1)c1ccccc1)c1ccc(Cl)cc1Cl (stereo not given) ?
False

So what was the verdict on Cc1cccc(NC(=S)N/N=C2\C(=O)Nc3ccccc32)c1 in this test?
False

Hey, what did the test say about CC(CO)(CO)N1C(=O)C2C3C=CC(C3)C2C1=O (stereo not given) ?
False

---

Tested on: SK-OV-3
PROCEDURE_DETAILS: NCI tumour cell line growth inhibition, 48 h
The source made the active and inactive calls. Cut-off read from the data, not from the text of the source: active = GI50 up to about 1.1 µM and inactive = higher.
QUANTITY: GI50

{"columns": ["COMPOUND", "OBSERVED_MEASUREMENT"],
 "data": [
  ["COc1ccc2c(=O)cc(-c3ccncc3)oc2c1OC", "41 µM (inactive)"],
  ["CC(C)[Si]1(C(C)C)OCC2OC(n3ccc(=O)[nH]c3=O)C(O)(CO)C2O[Si](C(C)C)(C(C)C)O1 (stereo not given)", "16.4 µM (inactive)"],
  ["[N-]=[N+]=C1N=CN=C1c1nc[nH]n1", "> 100 µM (inactive)"],
  ["COC(=O)CCc1cc(O)c2c(c1)C(C(=O)OC)C(c1ccc(O)c(O)c1)O2 (stereo not given)", "33.6 µM (inactive)"]
]}

Field GI50 (SK-OV-3), entry COc1ccc(-c2oc3cc(-c4cc5oc(-c6ccc(OC)cc6)c(-c6ccc(OC)cc6)c5cc4OC)c(OC)cc3c2-c2ccc(OC)cc2)cc1 : > 100 µM (inactive)

---

Test system: HT-29
PROCEDURE_DETAILS: NCI tumour cell line growth inhibition, 48 h
Active and inactive are the calls of the source. Rule as the data show it: active = GI50 up to about 1.1 µM and inactive = higher.
Response enum: T = active, F = inactive

{"columns": ["MOLECULE", "CLASS_NAME"],
 "data": [
  ["CC(C)(O)/C=C/C(=O)[C@](C)(O)[C@H]1[C@H](O)C[C@@]2(C)[C@@H]3CC=C4[C@@H](C[C@H](O)C(=O)C4(C)C)[C@]3(C)C(=O)C[C@]12C", "T"],
  ["CC1C2CC(C(C3C(=O)C4CC3C(C)(C)C4C)C2=O)C1(C)C (stereo unspecified)", "F"],
  ["CSc1nc2c(c(=O)n1C)N=C(c1ccc(Cl)cc1)CC(c1ccccc1)N2 (stereo unspecified)", "F"],
  ["CN(C)c1ccc(C2SCC(=O)N2c2nc3cc4sc(N5C(=O)CSC5c5ccc(N(C)C)cc5)nc4cc3s2)cc1 (stereo unspecified)", "F"],
  ["Cn1cncc1CC1COC(=O)C1C(O)c1ccccc1 (stereo unspecified)", "F"]
]}

Now let's try a different one.
Field: outcome | Entry: CC(C)c1nccn1Cc1ccc(Cl)cc1Cl
F

---

System: SK-MEL-2
PROCEDURE_DETAILS: NCI tumour cell line growth inhibition, 48 h
Calls of active or inactive are those of the source. Rule as the data show it: active = GI50 up to about 1.1 µM and inactive = higher.
Bench note: report the call from active, inactive

Examples with answers:
{"columns": ["MOLECULE", "CLASS_NAME"],
 "data": [
  ["C=C1C2CC[C@@](C)(O)C2[C@H]2OC(=O)C(=C)[C@@H]2C[C@H]1O (stereo partly drawn)", "inactive"],
  ["CN(C)CCCN1C(=O)N(CCCN(C)C)c2c3cc(O)ccc3nc3c([N+](=O)[O-])ccc1c23", "inactive"],
  ["O=C(OCC12CC3CC(CC(C3)C1)C2)c1ccc(NCc2cc(O)ccc2O)cc1", "inactive"],
  ["Cc1cc(C)c2c(=O)n(CN3CCN(c4ccccc4)CC3)sc2n1", "inactive"],
  ["O=C(O[C@H](/C=C/c1ccccc1)P1(=O)N(Cc2ccccc2)[C@H]2CCCC[C@@H]2N1Cc1ccccc1)c1ccccc1", "inactive"],
  ["Nc1ccn(C2(CO)C=C(CO)C(O)C2O)c(=O)n1 (stereo not drawn)", "inactive"]
]}

Dear colleague, could you share the recorded outcome for COc1ccc2cc(CNCCCCCCNCc3ccc4cc(OC)ccc4c3)ccc2c1 when you have a moment?
inactive

Record request — test call for C[As](C)SCC(NC(=O)CCC(N)C(=O)O)C(=O)NCC(=O)O.c1ccncc1 (stereo not drawn)
active

// return assay outcome for O=C(O)C(Cc1cccs1)C(=O)O
inactive

Assay outcome for CC(C)/C(=N\[N+](C)(C)C)c1ccccc1 : what was it?
inactive

Short answer needed: outcome of this test for Cc1ccc2oc(=O)c(-c3ccccc3)nc2c1 ?
inactive

Assay result, entry C=CNC(=O)NC(=O)CSc1nc(=O)c(-c2ccccc2NC(=O)C(F)(F)F)n[nH]1 — outcome?
inactive

Hey, what did the test say about C=C(Br)CN(CC(=C)Br)C(C)=O ?
inactive

---

System: NCI-H460
PROCEDURE_DETAILS: NCI tumour cell line growth inhibition, 48 h
Calls of active or inactive are those of the source. Cut-off read from the data, not from the text of the source: active = GI50 up to about 1.1 µM and inactive = higher.
QUANTITY: GI50

The cases that follow already have their GI50 on record.
{"columns": ["MOLECULE", "OBSERVED_MEASUREMENT"],
 "data": [
  ["COc1ccc(CCn2ccc(C)n2)c(OC)c1", "> 100 µM (inactive)"],
  ["CN(C)CCC1(C2=CCCC2)CC/C(=C\\c2ccccc2)C1=O (stereo unspecified)", "15.9 µM (inactive)"],
  ["Cc1nc2ccc(C(F)(F)F)cc2nc1Nc1ccc(Cl)c(Cl)c1", "2.65 µM (inactive)"]
]}

Hey, NCI-H460 data for CCCc1[nH]c2ccccc2c1-c1c(CCC)[nH]c2ccccc12 : GI50 came out at 23.9 µM (inactive)

Noted GI50 for CN(C)CCCN1C(=O)N(CCCN(C)C)c2c3cc(O)ccc3nc3c([N+](=O)[O-])ccc1c23 , tested on NCI-H460: 15.6 µM (inactive)

GI50 on NCI-H460 for C=CCCC(C)N(C(=O)OC(C)(C)C)S(=O)(=O)c1ccc(C)cc1 (stereo unspecified) is > 100 µM (inactive)

---

System: CAKI-1
PROCEDURE_DETAILS: NCI tumour cell line growth inhibition, 48 h
The source made the active and inactive calls. Cut-off read from the data, not from the text of the source: active = GI50 up to about 1.1 µM and inactive = higher.
Collected GI50 values appear next to each entry.

Consider the reported GI50 for these compounds:
{"columns": ["COMPOUND", "QUANTITY", "OBSERVED_MEASUREMENT"],
 "data": [
  ["CCc1c(-c2coc(CC/C(C)=C/c3ccccc3)n2)oc(OC)c(C)c1=O", "GI50", "> 52.2 µM (inactive)"],
  ["CCC(C)C1NC(=O)C(NC(=O)C(CC(C)C)N(C)C(=O)[C@@H]2CC(O)CN2C(=O)[C@H](C)O)C(C)OC(=O)[C@H](Cc2ccc(OC)cc2)N(C)C(=O)[C@@H]2CCCN2C(=O)[C@H](CC(C)C)NC(=O)C(C)C(=O)[C@H](C(C)C)OC(=O)CC1O (some centres not stated)", "GI50", "1.14 µM (inactive)"],
  ["CCC1(O)CN(CCOC)[C@H]2C[C@@H]1C(=O)c1[nH]c3ccccc3c12 (some centres not stated)", "GI50", "> 100 µM (inactive)"],
  ["CC(C)=CCC/C(C)=C/CC/C(C)=C/CC(CO)N(C)CC/C=C(\\C)CCC=C(C)C (configuration not stated)", "GI50", "6.64 µM (inactive)"],
  ["O=C(NCCNCCO)N/N=C/c1cccc([N+](=O)[O-])c1", "GI50", "> 100 µM (inactive)"]
]}

Please find the next compound below.
GI50 recorded for this compound, CC(SC1=CC(=O)c2c(O)ccc(O)c2C1=O)C(=O)O (configuration not stated) , is 27.4 µM (inactive)

---

System: HCT-116
PROCEDURE_DETAILS: NCI tumour cell line growth inhibition, 48 h
The source made the active and inactive calls. Cut-off read from the data, not from the text of the source: active = GI50 up to about 1.1 µM and inactive = higher.
Return exactly one item of active, inactive

Check out these entries, answers already filled in.
{"columns": ["COMPOUND", "CLASS_NAME"],
 "data": [
  ["c1ccc2[nH]c3[nH]c4[nH]c5ccccc5[nH]c4[nH]c3[nH]c2c1", "inactive"],
  ["Cc1c(Cl)c(S(N)(=O)=O)cc(S(N)(=O)=O)c1NC(=O)c1ccc(Cl)cc1", "inactive"],
  ["NC(=O)c1[nH]nc(C2OC(CO)C(O)C2O)c1O (stereo unspecified)", "active"],
  ["COc1cc(/N=C\\N(C)C)c2ncccc2c1", "inactive"],
  ["COc1ccc(OC)c(NS(=O)(=O)c2ccc3nc(C)n(NS(=O)(=O)c4cc(OC)ccc4OC)c(=O)c3c2)c1", "inactive"]
]}

Can you look up the reported call for COc1cccc(C2c3cc4c(cc3OC(NNS(=O)(=O)c3ccc(C)cc3)C2C)OCO4)c1OC (stereo unspecified) for me?
inactive

How did this test come out for Cc1nc2ccccc2c(-n2cccn2)c1CCn1cccn1 ?
inactive

Assay result, entry O=C1c2ccccc2C(=O)N1CCN(CCN1C(=O)c2ccccc2C1=O)Cn1cccn1 — outcome?
inactive

// outcome(item) with item = CCOC(=O)c1nc2ccc(Cl)cc2c2c1CCO2
inactive

For O=c1[nH]nc2ccccc2c1Cc1ccccc1 , what call appears in the results of this test?
inactive

For CN(C)/C=N/CC(O)c1ccccc1 (stereo unspecified) , which call appears in the assay record?
inactive
